Read-out: ABC Transporter (ABCC2), ABCC2 (gene 1244)
METHOD_DESCRIPTION: LTEA_HepaRG_ABCC2: Life Technologies and Expression Analysis (LTEA) Assay for ABC Transporter (ABCC2) using HepaRG (AID 2283464)
EXPERIMENTAL_CONDITIONS: mRNA level, 48 h; actives raise or lower the signal
Method: LTEA_HepaRG is a cell based, multiplexed-readout assay that uses HepaRG, a human liver cell line, with measurements taken at 48 hours after chemical dosing on a 96-well plate.LTEA_HepaRG_ABCC2 is one of 102 assay component(s) measured in the LTEA HepaRG cell culture assay. It is a marker of Steatosis/NR mediated transport.Data from the assay component LTEA_HepaRG_ABCC2 was analyzed into 1 endpoint. […]
Calls of active or inactive are those of the source. The calls were made as follows: active = hit-call score of the fitted dose curve at least 0.9, where 1 is the maximum; inactive = score below 0.9.
API: response.call in True = active, False = inactive

Examples with answers:
# COMPOUND, LABEL_CLASS
records = [
    ("CS(=O)(=O)c1ccc(C(=O)C2C(=O)CCCC2=O)c([N+](=O)[O-])c1", "False"),
    ("Nc1c(Cl)c(Cl)nc(C(=O)O)c1Cl", "False"),
    ("Cc1ccc(N=CN(C)C=Nc2ccc(C)cc2C)c(C)c1", "False"),
    ("COP(=S)(OC)SCn1nnc2ccccc2c1=O", "False"),
    ("Nc1c(Cl)c(F)nc(OCC(=O)O)c1Cl", "False"),
    ("CCCN(CC)CC1COC2(CCC(C(C)(C)C)CC2)O1 (centres undefined)", "False"),
    ("COCC(=O)N(c1c(C)cccc1C)C(C)C(=O)OC (centres undefined)", "False"),
    ("CC(C)N1C(=O)N(c2ccccc2)CSC1=NC(C)(C)C", "False"),
]

Consider the record given below.
Task: Lab log entry: CCNP(=S)(OC)O/C(C)=C/C(=O)OC(C)C (centres undefined) — outcome as called in the assay?
Result: True
